test: liver-stage malaria parasite load reduction – cell-based, known kinase inhibitor set, luminescence, hepatoma host viability (AID 624392); conditions: Plasmodium liver stage in hepatoma cells, luciferase luminescence, concentration not given here; measured here: host liver cell viability;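 also: infected cells incubated roughly two days before readout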
measure.name: liver cell % of control

# annotated cases, reported liver cell % of control shown
molecule	liver cell % of control
NS(=O)(=O)c1ccc(-c2ccc(C=C3C(=O)c4ccccc4C3=O)o2)cc1	102%
O=C1NN(c2ccccc2)C(=O)C1=Cc1ccc(-c2ccc(Cl)cc2)o1	98.7%
Cc1cn(-c2cc(C(=O)Nc3ccc(C)c(NC(=O)N4CCNC4=O)c3)cc(C(F)(F)F)c2)cn1	98.1%
COC(=O)Nc1nc2ccc(Sc3ccc(NC(=O)Nc4cc(C(F)(F)F)ccc4F)cc3)cc2[nH]1	136%
COc1cc(NC(=O)c2csc(-c3ccncc3)n2)cc(C(=O)Nc2cccc(C(F)(F)F)c2)c1	95.7%
CCN1CCN(Cc2ccc(NC(=O)c3cc(NC(=O)N4CCNC4=O)cc(OC)c3)cc2C(F)(F)F)CC1	96.3%
Cc1ccc(C(=O)Nc2cccc(C(F)(F)F)c2)cc1NC(=O)c1c[nH]c2cc(C(F)(F)F)ccc2c1=O	97.9%
CC(C)n1cnc2c(Nc3ccc(F)c(Cl)c3)nc(NCCO)nc21	96.9%

input: Quick check: liver cell % of control of "CCN1CCN(Cc2ccc(NC(=O)c3ccc(C)c(NC(=O)c4cccc5[nH]ccc45)c3)cc2C(F)(F)F)CC1" ?
output: 103%

input: Ok, now "C=CC(=O)N1CCN(Cc2ccc(C(=O)Nc3ncc(Sc4cc(C(=O)N5CCN(C(C)=O)CC5)c(OC)cc4C)s3)cc2)CC1"
output: 92.4%
